molecular target: PABPC1 RRM3 including the RRM3-4 linker (residues 191-289) (human, UniProt P11940 191-289); experiment: ITC
Sequence (P11940 191-289): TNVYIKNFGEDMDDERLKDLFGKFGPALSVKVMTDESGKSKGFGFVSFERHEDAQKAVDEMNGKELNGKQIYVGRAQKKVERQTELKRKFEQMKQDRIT

| Binder | Kd / nM |
| --- | --- |
| Paip2A(25-83) (residues 25-83 of PABP-interacting protein 2A) (domain or fragment, human, UniProt Q9BPZ3 25-83, looked up) HEDDNPFAEYMWMENEEEFNRQIEEELWEEEFIERCFQEMLEEEEEHEWFIPARDLPQT | 1300 |
